Below, each entry is listed alongside its reported CL (mL/hr).
# assay.protocol: PK of 20 kDa PEGylated relaxin polypeptides after a single subcutaneous injection in SD rats (Example 40)
# Format: in vivo, Sprague-Dawley (SD) rats
# condition.context: 0.5 mg/kg SC, SD rats
Non-standard residues stand in square brackets, D forms with d. No end group written: not given here. Phe(4-Ac) = CC(=O)c1ccc(C[C@H](N)C(=O)O)cc1
Report only the number, with the unit mL/min/kg understood.

Please review the entries below; each comes with its answer.
{"columns": ["substance", "unit.annotation", "value"],
 "data": [
  ["RLX-A-AA5-20KPEG-001: relaxin variant, B1 Ala, pAF at A chain position A5, 20K PEGylated (chain 1 QLYSXLANKCCHVGCTKRSLARFC; chain 2 ASWMEEVIKLCGRELVRAQIAICGMSTWS; not fully specified; non-natural residues)", "mL/min/kg", 0.518],
  ["RLX-A-AV13-20KPEG-001: relaxin variant, B1 Ala, pAF substituted for valine 13 in the A chain, 20K PEG attached (chain 1 QLYSALANKCCHXGCTKRSLARFC; chain 2 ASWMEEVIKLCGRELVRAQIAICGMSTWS; not fully specified; non-natural residues)", "mL/min/kg", 0.258]
]}

Param item = RLX-A-BW28-20KPEG-001: relaxin variant, B1 Ala, pAF at B chain position W28, 20K PEGylated (chain 1 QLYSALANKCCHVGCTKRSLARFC; chain 2 ASWMEEVIKLCGRELVRAQIAICGMST[Phe(4-Ac)](PEG 20 kDa)S; not fully specified (bridges); ends and bridges not checked) ; retrieve measured CL (mL/hr).
0.375

Input RLX-A-AR18-20KPEG-001: relaxin variant, B1 Ala, pAF at A chain position R18, 20K PEGylated (chain 1 QLYSALANKCCHVGCTKXSLARFC; chain 2 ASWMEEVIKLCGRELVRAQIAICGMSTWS; not fully specified; non-natural residues)
0.64

Input RLX-A-BV7-20KPEG-001: relaxin variant, B1 Ala, pAF at B chain position V7, 20K PEGylated (chain 1 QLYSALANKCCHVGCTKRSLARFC; chain 2 ASWMEE[Phe(4-Ac)](PEG 20 kDa)IKLCGRELVRAQIAICGMSTWS; not fully specified (bridges); ends and bridges not checked)
0.482

###

# assay.protocol: PK of 20 kDa PEGylated relaxin polypeptides after a single subcutaneous injection in SD rats (Example 40)
# Format: in vivo, Sprague-Dawley (SD) rats
# condition.context: 0.5 mg/kg SC, male SD rats, 12 hr
Non-standard residues stand in square brackets, D forms with d. No end group written: not given here. Phe(4-Ac) = CC(=O)c1ccc(C[C@H](N)C(=O)O)cc1
Below, each entry is listed alongside its reported Mean serum Conc..
Report only the number, with the unit ng/mL understood.

{"columns": ["substance", "unit.annotation", "Mean serum Conc."],
 "data": [
  ["RLX-A-AA5-20KPEG-001: relaxin variant, B1 Ala, pAF at A chain position A5, 20K PEGylated (chain 1 QLYSXLANKCCHVGCTKRSLARFC; chain 2 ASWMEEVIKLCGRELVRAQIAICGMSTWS; not fully specified; non-natural residues)", "ng/mL", 434.3]
]}

Param item = RLX-A-AV13-20KPEG-001: relaxin variant, B1 Ala, pAF substituted for valine 13 in the A chain, 20K PEG attached (chain 1 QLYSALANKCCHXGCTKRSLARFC; chain 2 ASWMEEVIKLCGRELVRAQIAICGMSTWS; not fully specified; non-natural residues) ; retrieve measured Mean serum Conc..
630.1

Input RLX-A-BV7-20KPEG-001: relaxin variant, B1 Ala, pAF at B chain position V7, 20K PEGylated (chain 1 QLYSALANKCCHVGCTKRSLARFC; chain 2 ASWMEE[Phe(4-Ac)](PEG 20 kDa)IKLCGRELVRAQIAICGMSTWS; not fully specified (bridges); ends and bridges not checked)
457.3

Input RLX-A-BW28-20KPEG-001: relaxin variant, B1 Ala, pAF at B chain position W28, 20K PEGylated (chain 1 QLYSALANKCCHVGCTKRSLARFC; chain 2 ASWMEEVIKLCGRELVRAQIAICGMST[Phe(4-Ac)](PEG 20 kDa)S; not fully specified (bridges); ends and bridges not checked)
486.6

Input RLX-A-AR18-20KPEG-001: relaxin variant, B1 Ala, pAF at A chain position R18, 20K PEGylated (chain 1 QLYSALANKCCHVGCTKXSLARFC; chain 2 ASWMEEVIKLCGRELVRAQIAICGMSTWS; not fully specified; non-natural residues)
332.5
